Below, each of the compounds is paired with its reported percentage of total drug in CWR-22Rv1 cancer value.
- TEST_SUMMARY: Tissue distribution and metabolites in nude mice bearing CWR-22Rv1 cancers
- Format: in vivo, mouse
- MEASUREMENT_CONDITIONS: CWR-22Rv1 cancer, 4 hours post oral 5mg/kg tasquinimod
MEASURED_ENDPOINT: percentage of total drug in CWR-22Rv1 cancer

In [3]: df
Out[3]:
                                   compound  observed_value
0  CN(C(=O)c1c(O)c2c(O)cccc2n(C)c1=O)c1ccc(C(F)(F)F)cc1 [Quinoline-O-demethylate]        17+/- 4%
1  COc1cccc2c1c(O)c(C(=O)Nc1ccc(C(F)(F)F)cc1)c(=O)n2C [Carboxamide-N-demethylate]            < 1%
2  COc1cccc2[nH]c(=O)c(C(=O)N(C)c3ccc(C(F)(F)F)cc3)c(O)c12 [Quinoline-N-demethylate]            < 1%
3  COc1cccc2c1c(O)c(C(=O)N(C)c1ccc(C(F)(F)F)cc1)c(=O)n2C [Tasquinimod]         83+/-6%

* * *

Listed below: concentration at 4 h values for each entry.
- TEST_SUMMARY: Tissue distribution and metabolites in nude mice bearing CWR-22Rv1 cancers
- Format: in vivo, mouse
- MEASUREMENT_CONDITIONS: male, nude, mouse; plasma, 4 hours post oral 5mg/kg tasquinimod; read-out: concentration in plasma
MEASURED_ENDPOINT: concentration at 4 h (nM)

>>> df
                                   molecule     measured_endpoint  inequality_operator  observed_value
0  COc1cccc2[nH]c(=O)c(C(=O)N(C)c3ccc(C(F)(F)F)cc3)c(O)c12 [Quinoline-N-demethylate]  concentration at 4 h                    <              60
1  CN(C(=O)c1c(O)c2c(O)cccc2n(C)c1=O)c1ccc(C(F)(F)F)cc1 [Quinoline-O-demethylate]  concentration at 4 h                    =             300
2  COc1cccc2c1c(O)c(C(=O)N(C)c1ccc(C(F)(F)F)cc1)c(=O)n2C  concentration at 4 h                    =            5580
3  COc1cccc2c1c(O)c(C(=O)Nc1ccc(C(F)(F)F)cc1)c(=O)n2C [Carboxamide-N-demethylate]  concentration at 4 h                    <              60

* * *

- TEST_SUMMARY: Tissue distribution and metabolites in nude mice bearing CWR-22Rv1 cancers
- Type: in vivo, mouse
- MEASUREMENT_CONDITIONS: kidney, 4 hours post oral 5mg/kg tasquinimod
Reported percentage of total drug in kidney values follow for various compounds
MEASURED_ENDPOINT: percentage of total drug in kidney

In [3]: df
Out[3]:
                                   compound                   measured_endpoint  observed_value
0  COc1cccc2c1c(O)c(C(=O)Nc1ccc(C(F)(F)F)cc1)c(=O)n2C [Carboxamide-N-demethylate]  percentage of total drug in kidney            < 1%
1  COc1cccc2c1c(O)c(C(=O)N(C)c1ccc(C(F)(F)F)cc1)c(=O)n2C [Tasquinimod]  percentage of total drug in kidney         60+/-7%
2  COc1cccc2[nH]c(=O)c(C(=O)N(C)c3ccc(C(F)(F)F)cc3)c(O)c12 [Quinoline-N-demethylate]  percentage of total drug in kidney            < 1%
3  CN(C(=O)c1c(O)c2c(O)cccc2n(C)c1=O)c1ccc(C(F)(F)F)cc1 [Quinoline-O-demethylate]  percentage of total drug in kidney         36+/-4%
